The entries below come with measured tissue uptake at 1 h values attached.
Assay: Ex vivo biodistribution in PC-3 tumor-bearing mice
Conditions: mouse, liver, 100 ug, Uptake in liver, 1 h blocked (co-injected with 100 µg [D-Phe6,Leu-NHEt13,des-Met14]Bombesin(6-14))
Numbered stars: 1 amine (or outer) side, 2 acyl side, 3 side chain; on linkers, the order of the positions; unused ones are H or OH. Square brackets hold non-standard residues; d marks the D form. Peptide text beside a SMILES is read from it. * marks the point of attachment. DOTA = O=C(O)CN1CCN(CC(=O)O)CCN(CC(=O)*)CCN(CC(=O)O)CC1; NMeH = CN[C@@H](Cc1c[nH]cn1)C(=O)O; X1 = O=C(CN1CCC(N[*:1])CC1)[*:2]; Tle = CC(C)(C)[C@H](N)C(=O)O; Thz = O=C(O)[C@@H]1CSCN1
I only need the number, in %ID/g, no unit after it.

compound: CC(C)C[C@@H](CN1CSC[C@H]1C(N)=O)NC(=O)[C@H](Cc1cnc[nH]1)NC(=O)CN(C)C(=O)[C@@H](NC(=O)[C@H](C)NC(=O)[C@H](Cc1c[nH]c2ccccc12)NC(=O)[C@H](CCC(N)=O)NC(=O)[C@@H](Cc1ccccc1)NC(=O)CN1CCC(NC(=O)CN2CCN(CC(=O)O)CCN(CC(=O)O)CCN(CC(=O)O)CC2)CC1)C(C)C [[^177Lu]Lu-TacsBOMB5, metal not drawn]
measured_value: 0.29

Query :: // query tissue uptake at 1 h value for entry CC(C)C[C@H](NC(=O)[C@H](Cc1cnc[nH]1)N(C)C(=O)CNC(=O)[C@@H](NC(=O)[C@H](C)NC(=O)[C@H](Cc1c[nH]c2ccccc12)NC(=O)[C@H](Cc1c[nH]cn1)NC(=O)[C@@H](Cc1ccccc1)NC(=O)CN1CCC(NC(=O)CN2CCN(CC(=O)O)CCN(CC(=O)O)CCN(CC(=O)O)CC2)CC1)C(C)(C)C)C(=O)N1CSC[C@H]1C(N)=O [[^177Lu]Lu-LW01142, metal not drawn] ({DOTA}-[X1][dF]HWA[Tle]G[NMeH]L[Thz]-NH2)
Result :: 0.57

Query :: // query tissue uptake at 1 h value for entry CC(C)C[C@H](NC(=O)[C@H](Cc1cnc[nH]1)N(C)C(=O)CNC(=O)[C@@H](NC(=O)[C@H](C)NC(=O)[C@H](Cc1c[nH]c2ccccc12)NC(=O)[C@H](CCC(N)=O)NC(=O)[C@@H](Cc1ccccc1)NC(=O)CN1CCC(NC(=O)CN2CCN(CC(=O)O)CCN(CC(=O)O)CCN(CC(=O)O)CC2)CC1)C(C)(C)C)C(=O)N1CSC[C@H]1C(N)=O [[^177Lu]Lu-LW01110, metal not drawn]
Result :: 0.26

----------
The entries below come with measured tissue uptake at 1 h values attached.
Assay: Ex vivo biodistribution in PC-3 tumor-bearing mice
Settings: mouse, bone, 100 ug, Uptake in bone, 1 h blocked (co-injected with 100 µg [D-Phe6,Leu-NHEt13,des-Met14]Bombesin(6-14))
Method: SPECT/CT imaging experiments were performed using an MILabs (Houten, The Netherlands) U-SPECT-II/CT scanner with a custom-made ultra-high-sensitivity big mouse collimator (2 mm pinhole size) following previously reported procedures. […] For ex vivo biodistribution studies, the mice were injected with ~2–6 MBq of the radioligand. […] Organs/tissues of interested were collected, weighed, and measured using an automatic gamma counter.
Numbered stars: 1 amine (or outer) side, 2 acyl side, 3 side chain; on linkers, the order of the positions; unused ones are H or OH. Square brackets hold non-standard residues; d marks the D form. Peptide text beside a SMILES is read from it. * marks the point of attachment. DOTA = O=C(O)CN1CCN(CC(=O)O)CCN(CC(=O)*)CCN(CC(=O)O)CC1; NMeH = CN[C@@H](Cc1c[nH]cn1)C(=O)O; X1 = O=C(CN1CCC(N[*:1])CC1)[*:2]; Tle = CC(C)(C)[C@H](N)C(=O)O; Thz = O=C(O)[C@@H]1CSCN1
I only need the number, in %ID/g, no unit after it.

compound: CC(C)C[C@@H](CN1CSC[C@H]1C(N)=O)NC(=O)[C@H](Cc1cnc[nH]1)NC(=O)CN(C)C(=O)[C@@H](NC(=O)[C@H](C)NC(=O)[C@H](Cc1c[nH]c2ccccc12)NC(=O)[C@H](CCC(N)=O)NC(=O)[C@@H](Cc1ccccc1)NC(=O)CN1CCC(NC(=O)CN2CCN(CC(=O)O)CCN(CC(=O)O)CCN(CC(=O)O)CC2)CC1)C(C)C [[^177Lu]Lu-TacsBOMB5, metal not drawn]
tissue uptake at 1 h (%ID/g): 0.06

compound: CC(C)C[C@H](NC(=O)[C@H](Cc1cnc[nH]1)N(C)C(=O)CNC(=O)[C@@H](NC(=O)[C@H](C)NC(=O)[C@H](Cc1c[nH]c2ccccc12)NC(=O)[C@H](Cc1c[nH]cn1)NC(=O)[C@@H](Cc1ccccc1)NC(=O)CN1CCC(NC(=O)CN2CCN(CC(=O)O)CCN(CC(=O)O)CCN(CC(=O)O)CC2)CC1)C(C)(C)C)C(=O)N1CSC[C@H]1C(N)=O [[^177Lu]Lu-LW01142, metal not drawn] ({DOTA}-[X1][dF]HWA[Tle]G[NMeH]L[Thz]-NH2)
tissue uptake at 1 h (%ID/g): 0.13

Consider the additional compound presented here.
Query :: // query tissue uptake at 1 h value for entry CC(C)C[C@H](NC(=O)[C@H](Cc1cnc[nH]1)N(C)C(=O)CNC(=O)[C@@H](NC(=O)[C@H](C)NC(=O)[C@H](Cc1c[nH]c2ccccc12)NC(=O)[C@H](CCC(N)=O)NC(=O)[C@@H](Cc1ccccc1)NC(=O)CN1CCC(NC(=O)CN2CCN(CC(=O)O)CCN(CC(=O)O)CCN(CC(=O)O)CC2)CC1)C(C)(C)C)C(=O)N1CSC[C@H]1C(N)=O [[^177Lu]Lu-LW01110, metal not drawn]
Result :: 0.08
